- assayed_system: Stromelysin-1 (Homo sapiens, UniProt P08254)
- Sequence (P08254 whole entry): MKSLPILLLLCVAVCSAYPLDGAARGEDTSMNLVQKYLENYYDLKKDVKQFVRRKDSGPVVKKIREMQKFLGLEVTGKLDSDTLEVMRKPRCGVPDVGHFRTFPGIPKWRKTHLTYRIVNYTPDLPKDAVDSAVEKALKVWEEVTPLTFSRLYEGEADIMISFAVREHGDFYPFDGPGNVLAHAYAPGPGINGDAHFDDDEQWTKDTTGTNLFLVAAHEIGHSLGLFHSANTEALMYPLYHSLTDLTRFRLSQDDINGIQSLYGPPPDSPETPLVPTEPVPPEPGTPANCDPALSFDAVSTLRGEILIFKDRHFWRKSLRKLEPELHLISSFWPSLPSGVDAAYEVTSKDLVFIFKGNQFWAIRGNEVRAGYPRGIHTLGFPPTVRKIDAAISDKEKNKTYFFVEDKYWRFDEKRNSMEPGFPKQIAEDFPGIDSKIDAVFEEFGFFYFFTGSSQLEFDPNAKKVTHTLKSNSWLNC
property: IC50 (µM)
Answers are plain numbers, in µM.

Query (compound): Cc1ccc2nc(-c3cccc(NC(=O)CCc4ccccc4)c3)[nH]c2c1 ; field requested: IC50 46.3

---

- assayed_system: 72 kDa type IV collagenase (Homo sapiens, UniProt P08253)
- Sequence (P08253 whole entry): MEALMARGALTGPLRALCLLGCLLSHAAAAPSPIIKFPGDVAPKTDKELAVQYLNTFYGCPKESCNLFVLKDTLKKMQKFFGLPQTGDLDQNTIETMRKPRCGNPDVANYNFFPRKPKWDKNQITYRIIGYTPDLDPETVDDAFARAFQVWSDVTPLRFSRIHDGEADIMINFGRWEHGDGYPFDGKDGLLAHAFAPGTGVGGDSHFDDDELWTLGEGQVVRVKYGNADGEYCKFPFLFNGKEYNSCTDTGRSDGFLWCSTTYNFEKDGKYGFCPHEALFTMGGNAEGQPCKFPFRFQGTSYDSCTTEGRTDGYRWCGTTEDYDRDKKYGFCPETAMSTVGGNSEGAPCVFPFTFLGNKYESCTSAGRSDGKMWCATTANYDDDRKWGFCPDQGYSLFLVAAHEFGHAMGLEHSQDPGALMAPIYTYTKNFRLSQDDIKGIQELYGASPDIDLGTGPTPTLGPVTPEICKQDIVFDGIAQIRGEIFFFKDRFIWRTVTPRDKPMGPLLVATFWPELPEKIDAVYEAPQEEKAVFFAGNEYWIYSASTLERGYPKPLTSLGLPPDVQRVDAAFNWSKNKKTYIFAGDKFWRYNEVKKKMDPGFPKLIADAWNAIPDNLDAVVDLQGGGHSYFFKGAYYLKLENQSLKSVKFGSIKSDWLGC
property: pIC50
Numbers only, as −log10 of the molar value.

I'd like to know its pIC50. The compound in question is Cc1ccc2nc(-c3cccc(NC(=O)CCc4ccccc4)c3)[nH]c2c1 4.44

---

Exercise: for every item that follows, state its recorded pIC50.
- protocol_text: Antiproliferative activity against human MCF-10A cells by CCK8 assay
- Type: toxicity, cell-based
Answers are plain numbers, as −log10 of the molar value.

Worked cases, answers included:
>  <molecule>
CC(=O)O[C@H]1C(=O)[C@@]2(C)[C@H]([C@H](OC(=O)c3ccccc3)[C@]3(O)C[C@H](OC(=O)[C@H](O)[C@@H](NC(=O)c4ccccc4)c4ccccc4)C(C)=C1C3(C)C)[C@]1(OC(C)=O)CO[C@@H]1C[C@@H]2O [PACLITAXEL]

>  <pIC50>
6.94

$$$$
>  <molecule>
COc1cccc2c1C(=O)c1c(O)c3c(c(O)c1C2=O)C[C@@](O)(C(=O)CO)C[C@@H]3O[C@H]1C[C@H](N)[C@H](O)[C@H](C)O1 [DOXORUBICIN]

>  <pIC50>
6.01

$$$$
>  <molecule>
COc1ccc(/C=C/C(=O)c2cc(OC)c(OC)c(OC)c2)cc1O

>  <pIC50>
6.01

$$$$

Which measured pIC50 value corresponds to CCOP(=O)(OCC)C(Nc1ccc(CC(=O)Oc2cc(/C=C/C(=O)c3cc(OC)c(OC)c(OC)c3)ccc2OC)cc1)c1cccc([N+](=O)[O-])c1 (centres undefined) ? 5.57

---

Assign IC50 to each entry below.
- protocol_text: Antiproliferative activity against human L02 cells by CCK8 assay
- Assay type: toxicity, cell-based
Numbers only, in µM.

>  <compound>
CC(=O)O[C@H]1C(=O)[C@@]2(C)[C@H]([C@H](OC(=O)c3ccccc3)[C@]3(O)C[C@H](OC(=O)[C@H](O)[C@@H](NC(=O)c4ccccc4)c4ccccc4)C(C)=C1C3(C)C)[C@]1(OC(C)=O)CO[C@@H]1C[C@@H]2O

>  <IC50 (µM)>
0.095

$$$$
>  <compound>
COc1cccc2c1C(=O)c1c(O)c3c(c(O)c1C2=O)C[C@@](O)(C(=O)CO)C[C@@H]3O[C@H]1C[C@H](N)[C@H](O)[C@H](C)O1

>  <IC50 (µM)>
1.31

$$$$
>  <compound>
CCOP(=O)(OCC)C(Nc1ccc(CC(=O)Oc2cc(/C=C/C(=O)c3cc(OC)c(OC)c(OC)c3)ccc2OC)cc1)c1cccc([N+](=O)[O-])c1 (centres undefined)

>  <IC50 (µM)>
2.21

$$$$

Proceed to the following item.
So what's the measured IC50 for this one? COc1ccc(/C=C/C(=O)c2cc(OC)c(OC)c(OC)c2)cc1O 1.09
